- Test system: Liver microsomes
- test_summary: Clearance in human liver microsomes at 1 uM
- Type: ADME, Microsome
Values of Intrinsic clearance in liver microsomes greater than or equal to 50 µL/min/mg map to label 1; values below map to label 0.

compound="CN(c1nc2ccccc2s1)C1CCN(CC(O)COc2ccc(F)cc2)CC1 (stereo not given)" class_label="label 0"
compound=O=C(NC1CCN(CCc2c[nH]c3ccccc23)CC1)c1ccccc1 class_label="label 0"
compound="COc1cc(N)c(Cl)cc1C(=O)NC1CCN(CCCOc2ccc(F)cc2)CC1OC (stereo not given) [CISAPRIDE]" class_label="label 1"
compound=COc1ccc(CCN2CCC(Nc3nc4ccccc4n3Cc3ccc(F)cc3)CC2)cc1 class_label="label 1"

* * *

# reported half-life at 1 µM; entries follow
- target_of_assay: CYP2D6 (Homo sapiens)
- Sequence (P10635 whole entry): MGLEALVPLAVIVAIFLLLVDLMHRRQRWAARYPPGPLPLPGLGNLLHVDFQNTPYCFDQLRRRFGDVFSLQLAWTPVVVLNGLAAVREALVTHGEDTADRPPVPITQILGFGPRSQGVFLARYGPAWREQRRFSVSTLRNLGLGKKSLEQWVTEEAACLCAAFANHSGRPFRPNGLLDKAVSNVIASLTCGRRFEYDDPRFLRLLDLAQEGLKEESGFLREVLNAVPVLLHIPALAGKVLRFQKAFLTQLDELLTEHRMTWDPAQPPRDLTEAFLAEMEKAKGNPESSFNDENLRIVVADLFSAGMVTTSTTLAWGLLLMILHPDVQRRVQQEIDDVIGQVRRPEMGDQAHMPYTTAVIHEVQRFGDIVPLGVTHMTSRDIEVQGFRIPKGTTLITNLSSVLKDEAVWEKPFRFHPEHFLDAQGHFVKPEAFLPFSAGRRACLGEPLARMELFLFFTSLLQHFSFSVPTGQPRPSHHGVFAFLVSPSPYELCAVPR
- test_summary: Half life in human liver microsomes assessed as CYP2D6-mediated parent compound depletion at 1 uM
- Type: ADME, Microsome
readout_label: half-life at 1 µM (min)

molecule="COc1cc(N)c(Cl)cc1C(=O)NC1CCN(Cc2ccccc2)CC1 [CLEBOPRIDE]" unit_info=min prefix_operator=> val=60
molecule="CN(c1nc2ccccc2s1)C1CCN(CC(O)COc2ccc(F)cc2)CC1 (configuration not stated)" unit_info=min prefix_operator== val=1.5
molecule=O=C(CCCN1CCC(n2c(O)nc3ccccc32)CC1)c1ccc(F)cc1 unit_info=min prefix_operator== val=10.4
molecule="O=c1[nH]c2ccccc2n1C1CCN(CCCC(c2ccc(F)cc2)c2ccc(F)cc2)CC1 [PIMOZIDE]" unit_info=min prefix_operator== val=3.2
molecule="COc1cc(N)c(Cl)cc1C(=O)NC1CCN(CCCOc2ccc(F)cc2)CC1OC (configuration not stated) [CISAPRIDE]" unit_info=min prefix_operator=> val=60
molecule=COc1ccc(CCN2CCC(Nc3nc4ccccc4n3Cc3ccc(F)cc3)CC2)cc1 unit_info=min prefix_operator== val=4
molecule=O=C(NC1CCN(CCc2c[nH]c3ccccc23)CC1)c1ccccc1 unit_info=min prefix_operator=< val=5

* * *

- target_of_assay: CYP2C9 (Homo sapiens, UniProt P11712)
- Sequence (P11712 whole entry): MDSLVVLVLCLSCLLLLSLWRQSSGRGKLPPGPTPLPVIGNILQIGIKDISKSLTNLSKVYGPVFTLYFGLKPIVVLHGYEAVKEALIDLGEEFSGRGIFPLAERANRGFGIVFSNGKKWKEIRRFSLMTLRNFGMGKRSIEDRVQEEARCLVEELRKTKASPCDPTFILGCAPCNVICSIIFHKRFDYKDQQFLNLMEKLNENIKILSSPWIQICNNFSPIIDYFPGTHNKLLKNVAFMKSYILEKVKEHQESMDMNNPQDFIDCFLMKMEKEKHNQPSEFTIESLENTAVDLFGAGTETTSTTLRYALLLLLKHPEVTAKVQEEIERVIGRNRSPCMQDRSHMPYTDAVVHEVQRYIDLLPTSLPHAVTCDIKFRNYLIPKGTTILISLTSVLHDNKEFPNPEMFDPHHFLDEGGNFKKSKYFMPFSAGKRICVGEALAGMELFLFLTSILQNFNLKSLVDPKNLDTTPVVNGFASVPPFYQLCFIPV
- test_summary: Half life in human liver microsomes assessed as CYP2C9-mediated parent compound depletion at 1 uM
- Assay type: ADME, Microsome
// half-life at 1 µM lookup, one value per entry
readout_label: half-life at 1 µM

molecule="COc1cc(N)c(Cl)cc1C(=O)NC1CCN(CCCOc2ccc(F)cc2)CC1OC (configuration not stated) [CISAPRIDE]" val="> 1 h"
molecule="O=C(CCCN1CCC(n2c(O)nc3ccccc32)CC1)c1ccc(F)cc1 [BENPERIDOL]" val="> 1 h"
molecule="CN(c1nc2ccccc2s1)C1CCN(CC(O)COc2ccc(F)cc2)CC1 (configuration not stated) [SABELUZOLE]" val="> 1 h"
molecule="O=c1[nH]c2ccccc2n1C1CCN(CCCC(c2ccc(F)cc2)c2ccc(F)cc2)CC1 [PIMOZIDE]" val="> 1 h"
molecule="COc1cc(N)c(Cl)cc1C(=O)NC1CCN(Cc2ccccc2)CC1 [CLEBOPRIDE]" val="> 1 h"
molecule="O=C(NC1CCN(CCc2c[nH]c3ccccc23)CC1)c1ccccc1 [INDORAMIN]" val="> 1 h"
molecule="COc1ccc(CCN2CCC(Nc3nc4ccccc4n3Cc3ccc(F)cc3)CC2)cc1 [ASTEMIZOLE]" val="> 1 h"
